System: PPARg:RXRa (NR concentration 180 nM, RXRa partner concentration 90 nM)
Assay: PBM binding z-score (relative to random genomic background probes); higher = stronger binding; sequences stand for … in GC…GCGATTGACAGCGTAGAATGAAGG
Recorded PBM binding z-score determines the group label, using category 1 (below 0.7), category 2 (0.7 to below 2), category 3 (2 or more)

{"SEQUENCE CODE": "TCGAGTAGGTCAGTCGGGGCATTCAGCCAACATA", "DISCRETE LABEL": "category 3"}
{"SEQUENCE CODE": "GATACAGGGTCAAGCCCAGAGTACGCGTATTGAT", "DISCRETE LABEL": "category 3"}
{"SEQUENCE CODE": "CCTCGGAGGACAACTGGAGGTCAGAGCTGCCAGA", "DISCRETE LABEL": "category 1"}
{"SEQUENCE CODE": "GCTAGTTGGTCTGTAAAAGGTCACACACCGGTCG", "DISCRETE LABEL": "category 3"}
{"SEQUENCE CODE": "TAGCTTAGGTCATTCAGGGGCCAGTATAGAAAGC", "DISCRETE LABEL": "category 2"}
{"SEQUENCE CODE": "CCAACTGGGCCATCAGGTCATTGATATCAACGTT", "DISCRETE LABEL": "category 3"}
{"SEQUENCE CODE": "CCTGCTGGGCCACGAAAGGTCATTGATTCAGTGA", "DISCRETE LABEL": "category 2"}
{"SEQUENCE CODE": "CCTGCTAGGTCAATTGTCAGCTAAAGCAGCTCGC", "DISCRETE LABEL": "category 2"}
{"SEQUENCE CODE": "CAGCCTAGGTCAGGGCCAGTATCGGAGGAACGTT", "DISCRETE LABEL": "category 1"}
{"SEQUENCE CODE": "GATACATGGTCAGCTAGAGGCCAGAGTATGGAAA", "DISCRETE LABEL": "category 1"}
{"SEQUENCE CODE": "ACTTACGGGTCAACGAGGTTATAACACGCGTATA", "DISCRETE LABEL": "category 3"}
{"SEQUENCE CODE": "ACAGACAGGTGAGTGAGGGTAACTCAGCTGGACG", "DISCRETE LABEL": "category 1"}
{"SEQUENCE CODE": "CCGACTGGGGCAAGGCTACCATAACGCACAGCCA", "DISCRETE LABEL": "category 2"}
{"SEQUENCE CODE": "ACTCGGAGGACAAAGGTCCGAGCTACGCCAGTGA", "DISCRETE LABEL": "category 2"}
{"SEQUENCE CODE": "TCTAGTTGGTCAAAGGTCACCCACTCGAAATGCG", "DISCRETE LABEL": "category 3"}
{"SEQUENCE CODE": "TCATATAGGTAAACGGGTGAAAGTCCGTAAGTTA", "DISCRETE LABEL": "category 3"}
{"SEQUENCE CODE": "TCTTGTAGATAAAGCAGGTTAAGAAAGCCTGAGT", "DISCRETE LABEL": "category 1"}
{"SEQUENCE CODE": "CGTCCAAGGTCATAGGAGATCAGTGAAGACAGAT", "DISCRETE LABEL": "category 3"}
{"SEQUENCE CODE": "TCGCCTAGGTCATGCGGGCCAGTATAGTGTCGGC", "DISCRETE LABEL": "category 2"}
{"SEQUENCE CODE": "ACTAGCAGGCCAAGTTTGGGTTACTCAAACAAAG", "DISCRETE LABEL": "category 1"}
{"SEQUENCE CODE": "CCTACTGGCCCATCAGGTCATTGATATCAACGTT", "DISCRETE LABEL": "category 1"}
{"SEQUENCE CODE": "TCATATAGGTAAAGGTGAAAGTAGAACGATATGA", "DISCRETE LABEL": "category 3"}
{"SEQUENCE CODE": "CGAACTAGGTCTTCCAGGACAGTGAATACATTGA", "DISCRETE LABEL": "category 2"}
{"SEQUENCE CODE": "AGAACGAGGGTACGCTGAGTTGATAGCAGAGTAG", "DISCRETE LABEL": "category 1"}
{"SEQUENCE CODE": "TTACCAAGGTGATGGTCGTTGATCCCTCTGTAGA", "DISCRETE LABEL": "category 1"}

Attribution: the supplement of paper PMC6555819
